Measured values drawn from patent US20250313625A1 for this set.

SYSTEM_NAME: T1, hFc tagged human LAG3 ECD recombinant protein (human, UniProt P18627 23-450)
T1 construct: range 23-450; also called biotin labelled hFc tagged human LAG3 ECD; not shown: human IgG Fc tag
T1 sequence (looked up): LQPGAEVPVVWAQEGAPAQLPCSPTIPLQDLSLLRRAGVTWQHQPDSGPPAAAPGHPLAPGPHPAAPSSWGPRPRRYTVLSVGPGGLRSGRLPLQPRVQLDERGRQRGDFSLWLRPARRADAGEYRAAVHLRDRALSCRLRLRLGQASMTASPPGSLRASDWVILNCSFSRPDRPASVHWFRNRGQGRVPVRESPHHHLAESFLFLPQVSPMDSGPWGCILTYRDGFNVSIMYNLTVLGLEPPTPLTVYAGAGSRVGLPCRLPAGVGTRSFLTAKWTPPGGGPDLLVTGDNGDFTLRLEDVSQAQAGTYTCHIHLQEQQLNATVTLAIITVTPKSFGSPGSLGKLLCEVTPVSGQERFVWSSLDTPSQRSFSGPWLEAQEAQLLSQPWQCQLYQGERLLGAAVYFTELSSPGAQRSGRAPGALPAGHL
PROTOCOL_TEXT: competitive FACS: hFc-LAG3 ECD binding to Raji cells (MHC II)
pIC50: −log10 of the molar value.
# Lookup of reported pIC50 keyed by entry

{"columns": ["BINDER", "pIC50"],
 "data": [
  ["Antibody 023 (antibody, V domains shown, mouse hybridoma antibody) VH: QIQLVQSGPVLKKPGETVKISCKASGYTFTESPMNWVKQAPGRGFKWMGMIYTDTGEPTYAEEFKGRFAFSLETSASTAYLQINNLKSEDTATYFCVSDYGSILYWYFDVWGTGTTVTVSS VL: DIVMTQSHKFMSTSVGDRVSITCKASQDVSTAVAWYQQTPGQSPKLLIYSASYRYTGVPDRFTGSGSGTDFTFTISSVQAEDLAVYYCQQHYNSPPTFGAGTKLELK", 8.31],
  ["Antibody 047 (antibody, V domains shown, mouse hybridoma antibody) VH: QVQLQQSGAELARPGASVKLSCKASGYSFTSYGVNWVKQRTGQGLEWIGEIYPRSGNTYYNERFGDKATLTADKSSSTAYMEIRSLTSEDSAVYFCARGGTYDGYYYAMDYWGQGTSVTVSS VL: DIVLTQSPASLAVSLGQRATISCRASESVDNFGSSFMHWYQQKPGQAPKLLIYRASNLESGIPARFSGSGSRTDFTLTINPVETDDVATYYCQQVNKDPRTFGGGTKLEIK", 8.11],
  ["Antibody 057 (antibody, V domains shown, mouse hybridoma antibody) VH: QVQLQQSGAELARPGASVKLSCKASGFSFTSYGINWVKQRTGQGLEWIGEIYPRSGNTYYNEKLKGEATLTADRSSSTAYMELRSLTSEDSAVYFCARGGTYDGYYYAMDYWGQGTSVTVSS VL: NIVLTQSPASLAVSLGQRATISCRASESVDNFGSSFMHWYQQKPGQAPKLLIYRASNLESGIPARFGGSGSGTDFTLTIDPVETDDVATYYCQQVNKDPRTFGGGTKLEIK", 8.29],
  ["Antibody 048 (antibody, V domains shown, mouse hybridoma antibody) VH: EFQVQQSGPELVKPGASVKISCKASGYSFSDYNMNWLKQSTGKSLEWIGLVDPIYGTIRYNQKFKGKATLTVDQSSSTAYMQLNSLTSEDSAVYYCALITTSVRYFDYWGQGTTLTVSS VL: DVLMTQTPLSLPVSLGDQASISCRSSQNIVHTDGNTYLEWYLQKPGQSPKLLIYKVSNRFSGVPDRFSGSGSGTDFTLKISRVEAEDLGVYYCFQGSHVPPTFGGGTKLEIK", 8.12],
  ["Antibody 038 (antibody, V domains shown, mouse hybridoma antibody) VH: DVQVQESGPGLVKPSQSLSLTCSVTGYSITSGYYWNWIRQFPGNKLEWMGYISYDGSNEYNLSLKNRLSITRDTSKNQFFLKLNSVTTEDTATYYCAREEDGYYGGMDYWGQGTSVTVSS VL: DIVMTQSHKFMSASVGVRVSITCRASQDVDTAVAWYQQKPGQSPKLLIYWASTRHTGVPDRFTGSGSGTDFTLTISNVQSEDLADYFCQQYSSYPYTFGGGTKLEIK", 8.38]
]}
